- Tested on: KYSE-30
- PROCEDURE_SUMMARY: Antiproliferative activity against human KYSE-30 cells assessed as inhibition of cell growth measured after 48 hrs by CCK8 method
- Assay type: functional, cell-based
- ASSAY_CONTEXT: KYSE-30, 48 h
Listing of recorded IC50 by entry.
READOUT_LABEL: IC50 (nM)

> print(dat)
                            compound.string  readout.label  operator.symbol  reported.measurement
1  COc1ccc(CN(C(=O)Cn2cc(CSc3nc4ccccc4s3)nn2)c2ccc(Cl)cc2)cc1           IC50                >                 80000
2  COc1ccc(CN(C(=O)Cn2cc(CSc3nc4ccccc4s3)nn2)c2cc(OC)c(OC)c(OC)c2)cc1OC           IC50                =                  1740
3  COc1ccc(CN(C(=O)Cn2cc(CSc3nc4ccccc4s3)nn2)c2cc(OC)c(OC)c(OC)c2)cc1N           IC50                =                    59
4  COc1cc(N(Cc2ccc(C)cc2)C(=O)Cn2cc(CSc3nc4ccccc4s3)nn2)cc(OC)c1OC           IC50                =                  1860

---

- TGT: Tubulin
- PROCEDURE_SUMMARY: Inhibition of tubulin polymerization (unknown origin) by spectrophotometer analysis
- Format: protein-complex assay, Homo sapiens
READOUT_LABEL: IC50 (µM)

> print(dat)
                            compound.string  unit.annotation  reported.measurement
1  COc1cc(C(=O)c2nc3cc(Br)ccc3s2)cc(OC)c1OC               µM                  13.1

---

- Tested on: KYSE-30
- PROCEDURE_SUMMARY: Antiproliferative activity against human KYSE-30 cells assessed as inhibition of cell growth measured after 48 hrs by CCK8 method
- Format: functional, cell-based
- ASSAY_CONTEXT: KYSE-30, 48 h
pIC50: −log10 of the molar value.
Listing of recorded pIC50 by entry.
READOUT_LABEL: pIC50

> print(dat)
                            compound.string  operator.symbol  reported.measurement
1  COc1ccc(CN(C(=O)Cn2cc(CSc3nc4ccccc4s3)nn2)c2cc(OC)c(OC)c(OC)c2)cc1                =                  5.84
2  COc1cc(N(Cc2ccc(Cl)cc2)C(=O)Cn2cc(CSc3nc4ccccc4s3)nn2)cc(OC)c1OC                <                  4.10
3  COc1ccc(CN(C(=O)Cn2cc(CSc3nc4ccc(Cl)cc4s3)nn2)c2cc(OC)c(OC)c(OC)c2)cc1O                =                  7.14
4  COc1cc(N(Cc2cccnc2)C(=O)Cn2cc(CSc3nc4ccccc4s3)nn2)cc(OC)c1OC                <                  4.10

---

- Test system: KYSE-30
- PROCEDURE_SUMMARY: Antiproliferative activity against human KYSE-30 cells assessed as inhibition of cell growth measured after 48 hrs by CCK8 method
- Assay type: functional, cell-based
- ASSAY_CONTEXT: KYSE-30, 48 h
Listing of recorded IC50 by entry.
READOUT_LABEL: IC50 (µM)

> print(dat)
                            compound.string  unit.annotation  operator.symbol  reported.measurement
1  COc1ccc(CN(C(=O)Cn2cc(CSc3nc4ccccc4s3)nn2)c2ccc(C)cc2)cc1               µM                =                  63.1
2  COc1ccc(CN(C(=O)Cn2cc(CSc3nc4ccccc4s3)nn2)c2ccc(OC)c(OC)c2)cc1               µM                >                    80
3  COc1cc(CN(C(=O)Cn2cc(CSc3nc4ccccc4s3)nn2)c2cc(OC)c(OC)c(OC)c2)cc(OC)c1OC               µM                >                    80
4  COc1ccc2nc(SCc3cn(CC(=O)N(Cc4ccc(OC)c(O)c4)c4cc(OC)c(OC)c(OC)c4)nn3)sc2c1               µM                =                 0.058
5  COc1ccc(CN(C(=O)Cn2cc(CSc3nc4ccccc4s3)nn2)c2ccc(Br)cc2)cc1               µM                =                  35.5
6  COc1ccc(CN(C(=O)Cn2cc(CSc3nc4ccccc4s3)nn2)c2ccc(F)cc2)cc1               µM                =                  77.6
7  COc1cc2c(c(OC)c1OC)-c1ccc(OC)c(=O)cc1[C@@H](NC(C)=O)CC2               µM                =                 0.048
8  COc1cc(N(Cc2ccc(F)cc2)C(=O)Cn2cc(CSc3nc4ccccc4s3)nn2)cc(OC)c1OC               µM                >                    80
